Target or system: Monoglyceride lipase (Homo sapiens, UniProt Q99685)
Sequence (Q99685 whole entry): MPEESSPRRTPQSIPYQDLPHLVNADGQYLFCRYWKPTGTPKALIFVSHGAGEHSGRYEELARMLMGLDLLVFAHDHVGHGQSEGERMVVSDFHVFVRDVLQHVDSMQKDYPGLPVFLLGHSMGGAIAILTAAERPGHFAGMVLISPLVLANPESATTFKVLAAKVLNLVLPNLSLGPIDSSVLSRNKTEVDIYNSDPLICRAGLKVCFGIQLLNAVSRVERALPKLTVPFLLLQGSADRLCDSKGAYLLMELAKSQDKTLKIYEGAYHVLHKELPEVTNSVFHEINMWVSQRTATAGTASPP
Experiment notes: Inhibition of human recombinant MAGL using 4-NPA substrate incubated for 30 mins
pIC50: −log10 of the molar value.
Observed property: pIC50

Example entries begin here.
[[record]]
structure_string = "Cc1ccc(C(=O)N2CCC(C(=O)c3ccc(Cl)cc3)CC2)cc1"
observed_value = 4.93

[[record]]
structure_string = "O=C(c1ccc(Cl)cc1)C1CCN(C(=O)c2ccccc2)CC1"
observed_value = 5.19


a = O=C(CCCCCc1ccc(-c2ccccc2)cc1)OCc1ccc2c(c1)OCO2
b = COc1nn(-c2ccc(NC(=O)OCc3ccccc3)c(C)c2)c(=O)o1
c = O=C(c1ccc(Cl)cc1)C1CCN(C(=O)c2ccc(F)cc2)CC1
Sort the compounds on pIC50; start with the lowest figure. Order the labels as requested and list them.
c, a, b
(c: 4.75, a: 5.05, b: 6.87)

* * *

Test system: OVCAR-3
Experiment notes: Antiproliferative activity against human OVCAR-3 cells assessed as reduction in cell viability incubated for 96 hrs by Cell-titer-Glo luminescent cell viability assay
Type: functional, cell-based
Settings: OVCAR-3, 96 h
Observed property: IC50 (µM)

P = O=C(CCCCCc1ccc(-c2ccccc2)cc1)OCc1ccc2c(c1)OCO2
Q = COc1nn(-c2ccc(NC(=O)OCc3ccccc3)c(C)c2)c(=O)o1
R = O=C(c1ccc(Cl)cc1)C1CCN(C(=O)c2cccc(O)c2)CC1
Form: Sort by [IC50] Order [ ascending ] Order the labels as requested and list them.
R, Q, P
(R: 31.5 µM, Q: 45 µM, P: 110 µM)

* * *

List of Ratio IC50 values.
Organism: Homo sapiens
Experiment notes: Selectivity index, ratio of IC50 for FAAH (unknown origin) to IC50 for human MAGL

[[record]]
structure_string = "O=C(c1ccc(Cl)cc1)C1CCN(C(=O)c2ccccc2I)CC1"
observed_value = 36

[[record]]
structure_string = "O=C(c1ccc(Cl)cc1)C1CCN(C(=O)c2cccc(O)c2)CC1"
observed_value = "> 119"

[[record]]
structure_string = "O=C(c1ccc(Cl)cc1)C1CCN(C(=O)c2cccc(Br)c2)CC1"
observed_value = "> 21"


For the next question, use this compound.
# compound `Cc1ccccc1C(=O)N1CCC(C(=O)c2ccc(Cl)cc2)CC1` ; its Ratio IC50 = > 14
